Measured values drawn from paper PMC6767909 for this set.

Target protein (sequence): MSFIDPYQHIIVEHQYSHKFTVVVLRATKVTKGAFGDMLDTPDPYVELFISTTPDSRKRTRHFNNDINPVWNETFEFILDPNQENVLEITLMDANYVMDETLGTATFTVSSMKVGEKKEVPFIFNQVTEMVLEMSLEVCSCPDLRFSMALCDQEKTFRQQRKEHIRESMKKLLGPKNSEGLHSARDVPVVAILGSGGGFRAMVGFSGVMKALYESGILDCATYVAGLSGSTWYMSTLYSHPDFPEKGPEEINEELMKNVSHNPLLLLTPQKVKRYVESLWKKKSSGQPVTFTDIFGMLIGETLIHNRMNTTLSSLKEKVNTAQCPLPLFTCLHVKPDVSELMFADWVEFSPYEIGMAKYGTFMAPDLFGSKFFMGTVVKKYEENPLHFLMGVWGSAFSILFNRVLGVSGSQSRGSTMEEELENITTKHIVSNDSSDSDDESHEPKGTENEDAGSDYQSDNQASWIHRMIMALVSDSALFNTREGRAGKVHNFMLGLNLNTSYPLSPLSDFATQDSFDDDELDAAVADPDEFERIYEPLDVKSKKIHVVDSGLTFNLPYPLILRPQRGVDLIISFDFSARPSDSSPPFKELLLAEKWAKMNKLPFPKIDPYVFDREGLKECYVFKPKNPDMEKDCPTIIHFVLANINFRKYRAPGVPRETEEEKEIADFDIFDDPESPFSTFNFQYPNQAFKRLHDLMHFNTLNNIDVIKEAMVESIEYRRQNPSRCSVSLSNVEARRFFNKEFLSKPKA
metric.name: IC50 (nM)
Numbers only, in nM.

CCC[C@@H]1OC(=O)[C@@H]1CCCc1ccc(OC)cc1 (racemic) [cis-9f]	20

Next:
Req: Reported IC50 for CCC[C@@H]1OC(=O)[C@@H]1CCCc1ccccc1 (racemic) [cis-9d] : what is it?
Resp: 950
